# credit: patent US6545007B2

The entries below come with measured SI values attached.
- Tested on: HIV-1 (IIIB strain)
- Assay type: cell-based
- ASSAY CONTEXT: selectivity index (CC50/EC50)
MEASURE NAME: SI

• CCC(C)Sc1nc(Cc2ccccc2F)cc(=O)[nH]1 (stereo not shown) = 769
• CC1CCC(Oc2nc(Cc3ccccc3)cc(=O)[nH]2)CC1C (stereo not shown) = 9
• CCC(c1ccccc1)c1cc(=O)[nH]c(SC(C)C)n1 (stereo not shown) = 250
• CC(c1cc(=O)[nH]c(SC2CCCC2)n1)c1c(Cl)cccc1Cl (stereo not shown) = 78.3
• CCC(c1cc(=O)[nH]c(SC(C)C)n1)c1c(F)cccc1F (stereo not shown) = 875

---

The entries below come with measured CC50 values attached.
- Tested on: mock-infected MT-4 cells
- TEST DETAILS: Cytotoxicity: viability of mock-infected cells by the MTT method
- Format: cell-based, human
MEASURE NAME: CC50 (µM)

* CCC(C)Sc1nc(Cc2ccc(C)cc2)cc(=O)[nH]1 (centres unmarked) | 200
* CCC(C)Nc1nc(Cc2c(F)cccc2F)c(C)c(=O)[nH]1 (centres unmarked) | 200
* CCCCNc1nc(Cc2c(F)cccc2F)cc(=O)[nH]1 | 100

---

The entries below come with measured log10(EC50) values attached.
- Test system: HIV-1 (IIIB strain)
- Assay type: cell-based
- ASSAY CONTEXT: anti-HIV-1 activity, HIV-1-infected MT-4 cells
MEASURE NAME: log10(EC50) (log10 of the value in nM)

• CCC(C)Nc1nc(Cc2c(F)cccc2F)c(C)c(=O)[nH]1 (centres unmarked) = 1.85
• CC(C)CSc1nc(Cc2c(Cl)cccc2Cl)cc(=O)[nH]1 = 2.65
• CCC(c1cc(=O)[nH]c(SC2CCCCC2)n1)c1c(F)cccc1F (centres unmarked) = 1.70
• CCC(c1cc(=O)[nH]c(SC(C)C)n1)c1c(F)cccc1F (centres unmarked) = 1.90
• CCC(C)Sc1nc(Cc2cccc(F)c2)cc(=O)[nH]1 (centres unmarked) = 2.85

---

- System: HIV-1 (IIIB strain)
- Type: cell-based
- ASSAY CONTEXT: selectivity index (CC50/EC50)
MEASURE NAME: SI

• Cc1c(Cc2c(F)cccc2F)nc(NC2CCCC2)[nH]c1=O = >10,000
• CCC(C)Sc1nc(Cc2ccccc2Cl)c(C)c(=O)[nH]1 (centres unmarked) = >741
• CCC(C)Sc1nc(Cc2c(Cl)cccc2Cl)c(C)c(=O)[nH]1 (centres unmarked) = >4,000
• O=c1cc(Cc2c(F)cccc2F)nc(OC2CCCC2)[nH]1 = >10
• CC(C)Nc1nc(Cc2c(F)cccc2F)cc(=O)[nH]1 = >526

---

The entries below come with measured EC50 values attached.
- Tested on: HIV-1 (IIIB strain)
- Assay type: cell-based
- ASSAY CONTEXT: anti-HIV-1 activity, HIV-1-infected MT-4 cells
MEASURE NAME: EC50

* CCc1c(Cc2c(F)cccc2F)nc(SC(C)CC)[nH]c1=O (stereo not shown) | 100 nM
* CCC(c1cc(=O)[nH]c(SC(C)C)n1)c1cccc2ccccc12 (stereo not shown) | 1500 nM
* CCCc1c(Cc2ccccc2)nc(SC(C)CC)[nH]c1=O (stereo not shown) | 12000 nM
* CCCNc1nc(Cc2c(F)cccc2F)c(C)c(=O)[nH]1 | 20 nM
* CCC(C)Sc1nc(Cc2ccc(F)cc2)cc(=O)[nH]1 (stereo not shown) | 8700 nM
* CCC(C)Sc1nc(Cc2ccc(C(F)(F)F)cc2)cc(=O)[nH]1 (stereo not shown) | 25000 nM
* O=c1cc(Cc2c(F)cccc2F)nc(NC2CCCCC2)[nH]1 | 140 nM
* CCC(C)Sc1nc(Cc2ccc(C)cc2)c(C)c(=O)[nH]1 (stereo not shown) | 800 nM
* CCC(C)Sc1nc(C(c2ccccc2)c2ccccc2)cc(=O)[nH]1 (stereo not shown) | > 61000 nM
* CCc1c(Cc2ccccc2)nc(SC(C)CC)[nH]c1=O (stereo not shown) | 1000 nM
